# Test system: HeLa
# assay: Proliferation assay (HeLa cell line);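 also: crystal violet staining of cell number, scaled between a plate stained before dosing (0%) and cells left untreated (100%), compounds tested at 0.001-10 µM, IC50 via 4-parameter fit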
# experimental_parameters: read-out: Biological Assay 2: Proliferation assay (HeLa cell line) median IC50, 4 days, crystal violet

chemical_smiles	IC50
CCOc1cc(F)c(Cn2nc(-c3ncc(C4CCNCC4)c(Nc4ccncc4)n3)c3ccccc32)c(F)c1	1100 nM

###

# assayed_system: UniProtKB O43683
# assay: Formation-Assay: phosphorylation status of histone 2A by inhibition of kinase activity of Bub1
# Type: cell-based
# experimental_parameters: Biological Assay 4.1: H2A Formation IC50, co-treatment with Nocodazole 1 μg/ml, 16 h
Each entry below lists one item and its recorded IC50 value.

compound	unit_label	IC50
CCOc1cc(F)c(Cn2nc(-c3nc4c(c(Nc5ccncc5)n3)CSC4)c3ccccc32)c(F)c1 [Example 2-19-1]	nM	350
OCCOc1cc(F)c(Cn2nc(-c3nc(CN4CCOCC4)cc(Nc4ccnnc4)n3)c3ccccc32)c(F)c1 [Example 2-6-37]	nM	260
CCOc1cc(F)c(Cn2nc(-c3nc4c(c(Nc5cnnc(Cl)c5)n3)CCC4)c3ccccc32)c(F)c1 [Example 2-12-53]	nM	140
CCOc1cc(F)c(Cn2nc(-c3nc(C)cc(Nc4ccncc4C(N)=O)n3)c3ccccc32)c(F)c1 [Example 2-10-2]	nM	140
CCOc1cc(F)c(Cn2nc(-c3ncc(C4CCN(CC(F)F)CC4)c(Nc4ccncc4OC)n3)c3ccccc32)c(F)c1 [Example 2-11-5]	nM	8.3
COCc1cc(Nc2ccnc(C)c2)nc(-c2nn(Cc3c(F)cc(OCCO)cc3F)c3ccccc23)n1 [Example 2-12-51]	nM	570
CCOc1cc(F)c(Cn2nc(-c3nc(CN4CCOCC4)cc(Nc4ccncc4)n3)c3ccccc32)c(F)c1 [Example 2-12-12]	nM	3.6
CCOc1cc(F)c(Cn2nc(-c3nc4c(c(Nc5ccncc5OC)n3)CC(C)(C)CC4)c3ccccc32)c(F)c1 [Example 2-12-67]	nM	22
CCOc1cc(F)c(Cn2nc(-c3nc4c(c(Nc5ccncc5C)n3)CCC4)c3ccccc32)c(F)c1 [Example 2-14-2]	nM	1.6
CCOc1cc(F)c(Cn2nc(-c3nc4c(c(Nc5ccnc(C)n5)n3)CC(C)(C)CC4)c3ccccc32)c(F)c1 [Example 2-12-66]	nM	22
CCOc1cc(F)c(Cn2nc(-c3nc(C)c(F)c(Nc4ccncc4)n3)c3ccccc32)c(F)c1 [Example 2-12-5]	nM	390
CCOc1cc(F)c(Cn2nc(-c3ncc(CC(C)(C)N)c(Nc4ccncc4)n3)c3ccccc32)c(F)c1 [Example 2-9-18]	nM	6.7
CCOc1cc(F)c(Cn2nc(-c3nc(CN4CCOCC4)cc(Nc4ccnc(NC(C)=O)c4)n3)c3ccccc32)c(F)c1 [Example 2-12-14]	nM	11
CCOc1cc(F)c(Cn2nc(-c3nc4c(c(Nc5ccnc(C)c5)n3)CCC4)c3ccccc32)c(F)c1 [Example 2-12-6]	nM	6

###

# assayed_system: Bub1 (Homo sapiens)
# Sequence (O43683 whole entry): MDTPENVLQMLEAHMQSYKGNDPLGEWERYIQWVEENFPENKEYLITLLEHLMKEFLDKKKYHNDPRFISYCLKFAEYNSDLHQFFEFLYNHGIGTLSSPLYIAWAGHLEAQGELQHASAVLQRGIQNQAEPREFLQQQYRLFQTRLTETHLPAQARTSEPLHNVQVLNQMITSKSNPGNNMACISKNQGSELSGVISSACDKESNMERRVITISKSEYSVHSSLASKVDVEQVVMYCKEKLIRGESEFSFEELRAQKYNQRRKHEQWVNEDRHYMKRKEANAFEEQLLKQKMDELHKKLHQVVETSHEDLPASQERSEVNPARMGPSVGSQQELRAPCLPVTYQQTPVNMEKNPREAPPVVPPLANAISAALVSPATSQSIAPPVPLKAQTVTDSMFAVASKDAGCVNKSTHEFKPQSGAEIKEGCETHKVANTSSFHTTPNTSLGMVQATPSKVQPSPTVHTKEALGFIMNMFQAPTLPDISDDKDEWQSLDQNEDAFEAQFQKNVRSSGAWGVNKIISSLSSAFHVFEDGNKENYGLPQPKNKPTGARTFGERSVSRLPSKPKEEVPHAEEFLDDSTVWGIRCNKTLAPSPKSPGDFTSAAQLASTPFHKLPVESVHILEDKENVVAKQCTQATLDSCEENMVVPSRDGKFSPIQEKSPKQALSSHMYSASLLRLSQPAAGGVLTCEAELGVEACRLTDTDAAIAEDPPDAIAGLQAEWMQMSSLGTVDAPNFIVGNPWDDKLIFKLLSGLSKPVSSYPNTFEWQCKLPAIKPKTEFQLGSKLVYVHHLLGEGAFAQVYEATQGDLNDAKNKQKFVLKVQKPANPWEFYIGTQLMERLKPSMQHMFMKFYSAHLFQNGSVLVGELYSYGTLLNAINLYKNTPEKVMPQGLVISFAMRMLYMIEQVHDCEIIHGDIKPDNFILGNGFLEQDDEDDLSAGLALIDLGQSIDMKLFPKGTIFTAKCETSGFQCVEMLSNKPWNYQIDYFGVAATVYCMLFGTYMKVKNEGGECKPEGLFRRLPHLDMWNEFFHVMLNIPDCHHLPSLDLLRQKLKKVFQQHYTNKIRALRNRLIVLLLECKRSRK
# assay: Formation-Assay: phosphorylation status of histone 2A by inhibition of kinase activity of Bub1
# Format: cell-based
# experimental_parameters: Biological Assay 4.1: H2A Formation IC50, co-treatment with Nocodazole 1 μg/ml, 16 h
pIC50: −log10 of the molar value.
Each entry below lists one item and its recorded pIC50 value.

compound	pIC50
CCOc1cc(F)c(Cn2nc(-c3ncc(OCCS(C)(=O)=O)c(Nc4ccncc4)n3)c3ccccc32)c(F)c1 [Example 3-3-1, reference compound]	6.30
Cc1cc(Nc2nc(-c3nn(Cc4c(F)cc(OCCO)cc4F)c4ccccc34)nc3c2CCC3)ccn1	5.64
CCOc1cc(F)c(Cn2nc(-c3ncc(C4CCN(CC(F)(F)F)CC4)c(Nc4ccncc4OC)n3)c3ccccc32)c(F)c1	7.51
COc1cnccc1Nc1nc(-c2nn(Cc3c(F)cc(OCCO)cc3F)c3ccccc23)nc2c1CCC2	5.41
CCOc1cc(F)c(Cn2nc(-c3ncc(C4CCNCC4)c(Nc4ccncc4)n3)c3ccccc32)c(F)c1	7.92
CCOc1cc(F)c(Cn2nc(-c3ncc(C4CCN(CC(F)(F)F)CC4)c(Nc4ccnc(C)n4)n3)c3ccccc32)c(F)c1	8.04
CCOc1cc(F)c(Cn2nc(-c3nc4c(c(Nc5ccnc(NC(C)=O)c5)n3)CSC4)c3ccccc32)c(F)c1	6.47

###

# assayed_system: Bub1 (Homo sapiens)
# assay: Formation-Assay: phosphorylation status of histone 2A by inhibition of kinase activity of Bub1
# Format: cell-based
# experimental_parameters: Biological Assay 4.1: H2A Formation IC50, co-treatment with Nocodazole 1 μg/ml, 16 h
Each entry below lists one item and its recorded IC50 value.
measured_endpoint: IC50

chemical_smiles	measured_endpoint	observed_result
CCOc1cc(F)c(Cn2nc(-c3ncc(CC4CN(CC(F)(F)F)C4)c(Nc4ccncc4)n3)c3ccccc32)c(F)c1	IC50	41 nM
Cc1nccc(Nc2nc(-c3nn(Cc4c(F)cc(OCCO)cc4F)c4ccccc34)nc3c2CCC3)n1	IC50	0.79 nM
CCOc1cc(F)c(Cn2nc(-c3nc4c(c(Nc5ccnc(C)c5)n3)CN(CC)CC4)c3ccccc32)c(F)c1	IC50	39 nM
CCOc1cc(F)c(Cn2nc(-c3ncc(CN)c(Nc4ccnc(C(F)F)c4)n3)c3ccccc32)c(F)c1	IC50	2.9 nM
CCOc1cc(F)c(Cn2nc(-c3nc4c(c(Nc5ccnc(C)n5)n3)CC(C)(C)C4)c3ccccc32)c(F)c1	IC50	3.9 nM
CCOc1cc(F)c(Cn2nc(-c3nc(CN4CCOCC4)cc(Nc4ccnnc4)n3)c3ccccc32)c(F)c1	IC50	14 nM
Cc1cc(Nc2nc(-c3nn(Cc4c(F)cc(OCCO)cc4F)c4ccccc34)nc3c2CCC3)ncn1	IC50	1900 nM

###

# assayed_system: catalytic domain of human Bub1 (amino acids 704-1085) (Homo sapiens)
# Construct: catalytic domain of human Bub1 (amino acids 704-1085); His6 (N); made in house; host or cells: Hi5 insect cells
# Sequence (O43683 704-1085): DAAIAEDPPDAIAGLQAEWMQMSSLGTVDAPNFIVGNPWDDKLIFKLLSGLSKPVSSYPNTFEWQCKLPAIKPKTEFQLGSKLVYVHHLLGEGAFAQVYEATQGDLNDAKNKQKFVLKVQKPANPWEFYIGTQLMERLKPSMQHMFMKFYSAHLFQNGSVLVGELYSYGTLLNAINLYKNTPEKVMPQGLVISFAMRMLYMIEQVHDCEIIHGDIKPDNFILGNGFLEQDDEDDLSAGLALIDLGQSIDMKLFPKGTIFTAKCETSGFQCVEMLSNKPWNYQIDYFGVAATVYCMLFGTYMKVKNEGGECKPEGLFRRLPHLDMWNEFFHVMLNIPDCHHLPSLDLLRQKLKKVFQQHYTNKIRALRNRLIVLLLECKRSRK
# assay: Bub1 kinase assay (TR-FRET)
# Type: biochemical
# experimental_parameters: Biological Assay 1: Bub1 kinase assay median IC50, 10 μM ATP
pIC50: −log10 of the molar value.
measured_endpoint: pIC50

compound	observed_result
CCOc1cc(F)c(Cn2nc(-c3ncc(CCCOC)c(Nc4ccncc4C(=O)O)n3)c3ccccc32)c(F)c1 [Example 2-2-10]	7.70
CCOc1cc(F)c(Cn2nc(-c3nc4c(c(Nc5ccncc5)n3)CCNC4)c3ccccc32)c(F)c1 [Example 2-18-1]	8.21
Cc1nccc(Nc2nc(-c3nn(Cc4c(F)cc(OCCO)cc4F)c4ccccc34)ncc2C2CCN(CC3CC3)CC2)n1 [Example 2-6-23]	7.09
COCCOc1cc(F)c(Cn2nc(-c3nc4c(c(Nc5ccnc(C)n5)n3)CNC4)c3ccccc32)c(F)c1 [Example 2-9-25]	7.11
CS(=O)(=O)CCCc1cnc(-c2nn(Cc3c(F)cc(OCCO)cc3F)c3ccccc23)nc1Nc1ccncc1 [Example 2-4-2]	7.82
COCCOc1cc(F)c(Cn2nc(-c3nc4c(c(Nc5ccncc5Cl)n3)CCC(C)(C)C4)c3ccccc32)c(F)c1 [Example 2-15-10]	5.85
CCOc1cc(F)c(Cn2nc(-c3nc(Nc4ccncn4)cc(-c4sc(C)nc4C)n3)c3ccccc32)c(F)c1 [Example 2-12-85]	5.22

###

# assayed_system: catalytic domain of human Bub1 (amino acids 704-1085) (Homo sapiens)
# Construct: catalytic domain of human Bub1 (amino acids 704-1085); His6 (N); made in house; host or cells: Hi5 insect cells
# assay: Bub1 kinase assay (TR-FRET)
# Assay type: biochemical
# experimental_parameters: Biological Assay 1: Bub1 kinase assay median IC50, 10 μM ATP
pIC50: −log10 of the molar value.
Each entry below lists one item and its recorded pIC50 value.
measured_endpoint: pIC50

compound	assayed_system	measured_endpoint	observed_result
CCOc1cc(F)c(Cn2nc(-c3ncc(CCNCC(F)(F)F)c(Nc4ccncc4)n3)c3ccccc32)c(F)c1	catalytic domain of human Bub1 (amino acids 704-1085) (Homo sapiens)	pIC50	7.74
CCOc1cc(F)c(Cn2nc(-c3ncc(C4CCN(CC(F)(F)F)CC4)c(Nc4ccnc(C)n4)n3)c3ccccc32)c(F)c1	catalytic domain of human Bub1 (amino acids 704-1085) (Homo sapiens)	pIC50	7.29
COc1ccc(Cn2nc(-c3nc(C)c(F)c(Nc4ccncc4)n3)c3ccccc32)cc1	catalytic domain of human Bub1 (amino acids 704-1085) (Homo sapiens)	pIC50	7.26
CCOc1cc(F)c(Cn2nc(-c3nc4c(c(Nc5ccnc(C(F)F)c5)n3)CS(=O)(=O)C4)c3ccccc32)c(F)c1	catalytic domain of human Bub1 (amino acids 704-1085) (Homo sapiens)	pIC50	6.34
CCOc1cc(F)c(Cn2nc(-c3ncc(CS(C)(=O)=O)c(Nc4ccncc4)n3)c3ccccc32)c(F)c1	catalytic domain of human Bub1 (amino acids 704-1085) (Homo sapiens)	pIC50	8.05
Cc1nccc(Nc2cc(C(C)C)nc(-c3nn(Cc4c(F)cc(OCCO)cc4F)c4ccccc34)n2)n1	catalytic domain of human Bub1 (amino acids 704-1085) (Homo sapiens)	pIC50	6.29
CCOc1cc(F)c(Cn2nc(-c3ncc(CCCOC)c(Nc4ccncc4C(N)=O)n3)c3ccccc32)c(F)c1	catalytic domain of human Bub1 (amino acids 704-1085) (Homo sapiens)	pIC50	7.96
COCCOc1cc(F)c(Cn2nc(-c3nc4c(c(Nc5ccnc(C)n5)n3)CCC(C)(C)C4)c3ccccc32)c(F)c1	catalytic domain of human Bub1 (amino acids 704-1085) (Homo sapiens)	pIC50	7.09
COCCOc1cc(F)c(Cn2nc(-c3ncc(C4CCNCC4)c(Nc4ccnc(NC(C)=O)c4)n3)c3ccccc32)c(F)c1	catalytic domain of human Bub1 (amino acids 704-1085) (Homo sapiens)	pIC50	8.20
CCOc1cc(F)c(Cn2nc(-c3nc4c(c(Nc5ccncc5C5CC5)n3)CCC4)c3ccccc32)c(F)c1	catalytic domain of human Bub1 (amino acids 704-1085) (Homo sapiens)	pIC50	8.09
CCOc1cc(F)c(Cn2nc(-c3nc(CS(C)(=O)=O)cc(Nc4ccncc4)n3)c3ccccc32)c(F)c1	catalytic domain of human Bub1 (amino acids 704-1085) (Homo sapiens)	pIC50	8.23
Cc1nccc(Nc2nc(-c3nn(Cc4c(F)cc(OCCO)cc4F)c4ccccc34)nc3c2CCC3)n1	catalytic domain of human Bub1 (amino acids 704-1085) (Homo sapiens)	pIC50	7.52
CCOc1cc(F)c(Cn2nc(-c3nc(Nc4ccnc(C)n4)cc(C4CCOCC4)n3)c3ccccc32)c(F)c1	catalytic domain of human Bub1 (amino acids 704-1085) (Homo sapiens)	pIC50	5.96
Cc1cc(Nc2nc(-c3nn(Cc4c(F)cc(OCCO)cc4F)c4ccccc34)nc3c2CCC(C)(C)C3)c(C)cn1	catalytic domain of human Bub1 (amino acids 704-1085) (Homo sapiens)	pIC50	7.08
COc1cnccc1Nc1nc(-c2nn(Cc3c(F)cc(OCCO)cc3F)c3ccccc23)nc2c1CCC(C)(C)C2	catalytic domain of human Bub1 (amino acids 704-1085) (Homo sapiens)	pIC50	7.38
COCCOc1cc(F)c(Cn2nc(-c3nc4c(c(Nc5ccnc(C)n5)n3)COCC4)c3ccccc32)c(F)c1	catalytic domain of human Bub1 (amino acids 704-1085) (Homo sapiens)	pIC50	7.00
CCOc1cc(F)c(Cn2nc(-c3ncc(OCCO)c(Nc4ccncc4)n3)c3ccccc32)c(F)c1 [Example 3-1-1, reference compound]	catalytic domain of human Bub1 (amino acids 704-1085) (Homo sapiens)	pIC50	7.96
Cc1cc(Nc2nc(-c3nn(Cc4c(F)cc(OCCO)cc4F)c4ccccc34)nc3c2CCC3)c(F)cn1	catalytic domain of human Bub1 (amino acids 704-1085) (Homo sapiens)	pIC50	7.96
COCCOc1cc(F)c(Cn2nc(-c3nc4c(c(Nc5cc(C)ncc5C)n3)CCC(C)(C)C4)c3ccccc32)c(F)c1	catalytic domain of human Bub1 (amino acids 704-1085) (Homo sapiens)	pIC50	7.23
CCOc1cc(F)c(Cn2nc(-c3ncc(C4CCN(CC(F)F)CC4)c(Nc4ccncc4OC)n3)c3ccccc32)c(F)c1	catalytic domain of human Bub1 (amino acids 704-1085) (Homo sapiens)	pIC50	7.64
CCOc1cc(F)c(Cn2nc(-c3ncc(C4CCN(CC(F)(F)F)CC4)c(Nc4cc(C)ncc4C)n3)c3ccccc32)c(F)c1	catalytic domain of human Bub1 (amino acids 704-1085) (Homo sapiens)	pIC50	6.59
